Reference source: patent US10188634B2

Test system: SW480 colon cancer cells
experimentNotes: Cell viability assay (CellTiter-Blue) in SW480 colon cancer cells
Type: cell-based
testParameters: Homo sapiens, 96 h, 10 μM, four days, CellTiter-Blue, read-out: percent inhibition at 10 μM (given for EC50 of >10 μM)
metric: inhibition at 10 µM (%)
Value expressed in %; do not type the unit.

- smi: "Cc1ccc(-c2cncc3[nH]c(-c4n[nH]c5ccc(-c6cncc(NC(=O)C7CCCC7)c6)nc45)nc23)s1"
  inhibition at 10 µM [%]: 0.9
- smi: "Oc1cncc(-c2ccc3[nH]nc(-c4nc5c(-c6cccc(F)c6)cncc5[nH]4)c3n2)c1"
  inhibition at 10 µM [%]: 3.7
- smi: "CC(C)(C)C(=O)Nc1cncc(-c2ccc3[nH]nc(-c4nc5c(-c6ccc(Cl)s6)cncc5[nH]4)c3n2)c1"
  inhibition at 10 µM [%]: 1.5
- smi: "COc1cccc(-c2cncc3[nH]c(-c4n[nH]c5ccc(-c6cncc(NC(=O)C7CCCCC7)c6)nc45)nc23)c1"
  inhibition at 10 µM [%]: 10.8
- smi: "CN1CCN(c2cncc3[nH]c(-c4n[nH]c5ccc(-c6cncc(N)c6)nc45)nc23)CC1"
  inhibition at 10 µM [%]: 0

Challenge: Would you mind telling me what inhibition at 10 µM value was observed for CN(C)CCNc1cc(F)cc(-c2cncc3[nH]c(-c4n[nH]c5ccc(-c6cncc(OCCN7CCCC7)c6)nc45)nc23)c1 ?
Response given: 8.2

Challenge: What would you report for COc1cccc(-c2cncc3[nH]c(-c4n[nH]c5ccc(-c6cncc(NC(=O)CC(C)(C)C)c6)nc45)nc23)c1 ?
Response given: 0.4

Challenge: What would you report for c1cc(-c2cncc3[nH]c(-c4n[nH]c5ccc(-c6cncc(OCCN7CCCC7)c6)nc45)nc23)co1 ?
Response given: 33.1

Challenge: What would you report for O=C(CC1CCNCC1)Nc1cncc(-c2ccc3[nH]nc(-c4nc5c(-c6ccsc6)cncc5[nH]4)c3n2)c1 ?
Response given: 2.8

Challenge: What would you report for CN(C)CCOc1cncc(-c2ccc3[nH]nc(-c4nc5c(-c6cccs6)cncc5[nH]4)c3n2)c1 ?
Response given: 15.5

Challenge: What would you report for Cc1ccncc1-c1ccc2[nH]nc(-c3nc4c(-c5cc(F)cc(CNS(C)(=O)=O)c5)cncc4[nH]3)c2n1 ?
Response given: 37.3

Challenge: What would you report for Fc1cccc(-c2cncc3[nH]c(-c4n[nH]c5ccc(C6=CCNCC6)nc45)nc23)c1 ?
Response given: 0

Challenge: What would you report for COc1cccc(-c2cncc3[nH]c(-c4n[nH]c5ccc(-c6cncc(OC7CCNCC7)c6)nc45)nc23)c1 ?
Response given: 19.6

Challenge: What would you report for CC(C)C(=O)Nc1cncc(-c2ccc3[nH]nc(-c4nc5c(N6CCN(C)CC6)cncc5[nH]4)c3n2)c1 ?
Response given: 1
